- SYSTEM NAME: Nuclear receptor subfamily 1 group I member 2 (Homo sapiens) (UniProt O75469)
- Sequence (O75469 whole entry, looked up): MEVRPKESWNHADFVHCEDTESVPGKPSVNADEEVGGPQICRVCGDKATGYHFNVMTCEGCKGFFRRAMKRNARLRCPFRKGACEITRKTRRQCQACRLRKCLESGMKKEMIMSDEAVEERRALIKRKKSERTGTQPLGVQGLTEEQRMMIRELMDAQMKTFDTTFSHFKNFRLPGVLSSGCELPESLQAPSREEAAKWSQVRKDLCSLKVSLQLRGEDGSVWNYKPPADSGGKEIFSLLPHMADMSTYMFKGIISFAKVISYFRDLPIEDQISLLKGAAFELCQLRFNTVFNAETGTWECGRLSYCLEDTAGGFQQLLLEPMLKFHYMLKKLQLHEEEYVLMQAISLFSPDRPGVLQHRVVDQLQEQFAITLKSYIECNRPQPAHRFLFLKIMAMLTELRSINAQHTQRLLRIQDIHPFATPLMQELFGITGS
- ASSAY: ATG_PXR_TRANS: Attagene TRANS-FACTORIAL HepG2 Assay for human Pregnane X Receptor (PXR) (AID 2283008)
- Method: ATG_TRANS is a cell-based, multiplexed-readout assay that uses HepG2, a human liver cell line, with measurements taken at 24 hours after chemical dosing in a 24-well plate.ATG_PXR_TRANS is one of 30 assay component(s) measured or calculated from the ATG_TRANS assay. […] This assay endpoint, ATG_PXR_TRANS, was analyzed in the positive analysis fitting direction relative to DMSO as the negative control and baseline of activity. […]
Results filed as inconclusive are left out. The source made the active and inactive calls. Rule for the calls: active = hit-call score of the fitted dose curve at least 0.9, where 1 is the maximum; inconclusive = response in the unintended direction; inactive = score below 0.9.
Possible outcomes: active, inactive

> print(dat)
                                    compound  class.label
 1              COc1ccc(C(=O)c2ccccc2)c(O)c1       active
 2                         CCOC(=O)OC(=O)OCC     inactive
 3  CC1=NN(c2ccc(S(=O)(=O)O)cc2)C(=O)C1N=Nc1ccccc1 (stereo not drawn)     inactive
 4  Cc1c(C(=O)c2c[nH]n(C)c2=O)ccc(S(C)(=O)=O)c1C1=NOCC1     inactive
 5  CC(C)(c1ccccc1)c1ccc(Nc2ccc(C(C)(C)c3ccccc3)cc2)cc1     inactive
 6  CCCCCC[C@@H](O)C/C=C\CCCCCCCC(=O)OCC(O)CO (stereo partly drawn)     inactive
 7                                 CCCCCCC=O     inactive
 8                          Nc1ccc(Cl)c(N)c1     inactive
 9  CCCCCCCCCC[N+](C)(CCCCCCCCCC)CCC[Si](OC)(OC)OC     inactive
10                     CC(C)C(=O)OCCc1ccccc1     inactive
11  N=C1C=CC(=C(c2ccc(N)cc2)c2ccc(N)cc2)C=C1     inactive
12      O=C(Oc1ccccc1)c1ccccc1C(=O)Oc1ccccc1     inactive
13                  CC/C=C\CCOC(=O)c1ccccc1O     inactive

* * *

- SYSTEM NAME: Estrogen receptor (Homo sapiens)
- ASSAY: OT_ERa_GFPERaERE_0480: Odyssey Thera (OT) 8-hour HeLa Transcription Induction Assay for Estrogen Receptor (AID 2283381)
Active and inactive are the calls of the source. How the source made its calls: active means hit-call score of the fitted dose curve at least 0.9, where 1 is the maximum; inactive means score below 0.9. Peptide text beside a SMILES is read from it.
Possible outcomes: active, inactive

> print(dat)
                                    compound  class.label
 1                       Oc1ccccc1Cc1ccccc1O     inactive
 2      CCOC(=O)C1=NOC(c2ccccc2)(c2ccccc2)C1     inactive
 3                            CO[Si](C)(C)OC     inactive
 4                            CCc1cccc(C)c1N     inactive
 5                         CCC[Si](OC)(OC)OC     inactive
 6                  CCCCCCCCCCCCCC(=O)OC(C)C     inactive
 7             CCCCC/C=C\C/C=C\CCCCCCCC(=O)O     inactive
 8  CC(C)(c1ccccc1)c1ccc(Nc2ccc(C(C)(C)c3ccccc3)cc2)cc1     inactive
 9                  Cc1ccc([N+](=O)[O-])cc1N     inactive
10  CCCCCC[C@@H](O)C/C=C\CCCCCCCC(=O)OCC(O)CO (stereo partly drawn)     inactive
11  CCCCCCCCCC[N+](C)(CCCCCCCCCC)CCC[Si](OC)(OC)OC       active
12                         CCOC(=O)c1ccccc1C     inactive
13  C[Si]1(C)O[Si](C)(C)O[Si](C)(C)O[Si](C)(C)O[Si](C)(C)O1     inactive
14               O=C(O)c1ccc2c(c1)C(=O)OC2=O     inactive
15                  CCCCCCCOC(=O)c1ccc(O)cc1       active
16           CC1(C)[C@@H]2CC[C@@]1(C)C(=O)C2     inactive
17                        CCCCCCOc1ccc(N)cc1     inactive
18  CC(=O)/C=C/C1C(C)=CCCC1(C)C (stereo not drawn)     inactive
19                                CCCCC(=O)O     inactive
20                                   CCCCCCO     inactive
21                        CC(C)=CCCC(C)=CC#N     inactive
22                             Fc1ccc(Br)cc1     inactive
23  COC(=O)[C@H](Cc1ccccc1)NC(=O)[C@@H](N)CC(=O)O (H-Asp-Phe-OMe)     inactive
24                     CC12CCC(CC1)C(C)(C)O2     inactive
25              CCCCCCOC(=O)CCCCC(=O)OCCCCCC     inactive
26  C=C[C@@]1(C)CC(=O)[C@]2(O)[C@@]3(C)[C@@H](O)CCC(C)(C)[C@@H]3[C@H](O)[C@H](OC(C)=O)[C@@]2(C)O1       active
27                       O=C(O)/C=C/c1ccccc1       active
28      N#Cc1ccc(C(c2ccc(C#N)cc2)n2cncn2)cc1     inactive

* * *

- Read-out: Vascular cell adhesion molecule 1 (VCAM1), VCAM1 (gene 7412)
- ASSAY: BSK_LPS_VCAM1: BioMAP Diversity Plus: LPS Assay for Vascular cell adhesion molecule 1 (VCAM1) Biomarker Activity (AID 2283086)
- MEASUREMENT CONDITIONS: primary human HUVEC with PBMC; actives raise or lower the signal
Active and inactive are the calls of the source. The calls were made as follows: active = hit-call score of the fitted dose curve at least 0.9, where 1 is the maximum; inactive = score below 0.9.
Possible outcomes: active, inactive

> print(dat)
                                    compound  class.label
 1  CC(Cl)COP(=O)(OCC(C)Cl)OCC(C)Cl (stereo unspecified)     inactive
 2                   Nc1nc(N)nc(-c2ccccc2)n1     inactive
 3              COc1ccc(C(=O)c2ccccc2)c(O)c1     inactive
 4                         CCCCCCCCCCCC(C)=O       active
 5                     CC(C)c1cccc(C(C)C)c1N     inactive
 6          COc1ccc(C(=O)/C(Br)=C\C(=O)O)cc1       active
 7                  CC1(C)CC(O)CC(C)(C)N1[O]     inactive
 8                         CC=C(C)C=CC=C(C)C       active
 9  C=CC(=O)OCC(C)OCC(C)OCC(C)OC(=O)C=C (stereo unspecified)       active
10                   Oc1c(Cl)cc(Cl)c(Cl)c1Cl       active
11                     CCOC(=O)/C=C\C(=O)OCC     inactive
12                             Cc1c(O)cccc1O     inactive
13            Oc1ccc(/C=C/c2cc(O)cc(O)c2)cc1     inactive
14                         O=C1CCCCCCCCCCCN1     inactive
15                  C=C(C)C(=O)OCCCCCCCCCCCC     inactive
16  CCOC(=O)C1=NN(c2ccc(Cl)cc2Cl)C(C)(C(=O)OCC)C1 (stereo unspecified)     inactive

* * *

- SYSTEM NAME: Estrogen receptor (Homo sapiens)
- ASSAY: OT_ER_ERaERa_1440: Odyssey Thera (OT) 24-hour HEK293T Protein-Complementation Assay for Estrogen Receptor-alpha/-alpha Homodimer (AID 2283349);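 note: hits raise fluorescence above DMSO for agonists and antagonists alike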
Active and inactive are the calls of the source. Rule for the calls: active = hit-call score of the fitted dose curve at least 0.9, where 1 is the maximum; inconclusive = response in the unintended direction; inactive = score below 0.9.
Possible outcomes: active, inactive

> print(dat)
                                    molecule  class.label
 1  CCCCCCCCCC[N+](C)(CCCCCCCCCC)CCC[Si](OC)(OC)OC     inactive
 2    CCCCCCCCC(CO)CCCCCC (stereo not drawn)     inactive
 3      CCOC(=O)C1=NOC(c2ccccc2)(c2ccccc2)C1     inactive
 4                 CCCCNS(=O)(=O)c1ccc(C)cc1     inactive
 5           CC1(C)[C@@H]2CC[C@@]1(C)C(=O)C2     inactive
 6  C=CCOC(=O)c1ccc(C(=O)OCC=C)c(C(=O)OCC=C)c1     inactive
 7  CC(C)(c1ccccc1)c1ccc(Nc2ccc(C(C)(C)c3ccccc3)cc2)cc1     inactive
 8     CN(C)c1ccc2nc3ccc(=[N+](C)C)cc-3sc2c1     inactive
 9  CCCCC(CC)COS(=O)(=O)O (stereo not drawn)     inactive
10                                  CCCCCCCO     inactive
11  CC(C)(C)NC(=O)[C@H]1CC[C@H]2[C@@H]3CC[C@H]4NC(=O)C=C[C@]4(C)[C@H]3CC[C@]12C       active
12                           NC(=O)Nc1ccccc1     inactive
13  C=C[C@@]1(C)CC(=O)[C@]2(O)[C@@]3(C)[C@@H](O)CCC(C)(C)[C@@H]3[C@H](O)[C@H](OC(C)=O)[C@@]2(C)O1     inactive
14                                   CCCCCCO     inactive
15                  CCCCCCCCCCCCCC(=O)OC(C)C     inactive
16             CCCCCCCCCCCCCCCCCCOS(=O)(=O)O     inactive
17                           CCCCNC(=S)NCCCC     inactive
18                   O=C(Oc1ccccc1)c1ccccc1O     inactive
19                             CCCCCC(=O)OCC     inactive
20                       Oc1ccccc1Cc1ccccc1O     inactive
21                         CCC[Si](OC)(OC)OC     inactive
22                        CCCCCCOc1ccc(N)cc1       active
23                    CCCCNS(=O)(=O)c1ccccc1     inactive
24                          CCCCc1ccc(Cl)cc1     inactive
25                      CC(C)(C)C1CCC(=O)CC1     inactive
26               O=C(Nc1ccccc1)c1cc(Cl)ccc1O     inactive
27                            CO[Si](C)(C)OC     inactive
28  O=C(O)C1CCC(C(=O)O)CC1 (stereo not drawn)     inactive
